Molecular target: T1, Human OX40 (Sino Biological Inc) (human, UniProt P43489 29-216, limits assumed)
T1 construct: Bought soluble protein used as SPR analyte; also called huOX40
T1 sequence: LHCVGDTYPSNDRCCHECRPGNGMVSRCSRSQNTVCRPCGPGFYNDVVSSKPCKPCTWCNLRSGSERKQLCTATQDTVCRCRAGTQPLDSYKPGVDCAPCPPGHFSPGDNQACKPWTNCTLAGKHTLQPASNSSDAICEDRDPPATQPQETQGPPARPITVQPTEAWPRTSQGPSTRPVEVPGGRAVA
Assay: SPR (Biacore), antibody captured via anti-human Fc, huOX40 analyte
Outcome Measure: Kd (nM)
Respond numerically; units are nM and should not be typed.

Task: Requested field: Kd. Item: 3C8.gr.DA (antibody, V domains shown, also called 3C8.gr.5.DA) VH: EVQLVQSGAEVKKPGASVKVSCKASGYAFTNYLIEWVRQAPGQGLEWIGVINPGSGDAYYSEKFKGRVTLTADTSTSTAYLELSSLRSEDTAVYYCARDRLDYWGQGTLVTVSS VL: DIQMTQSPSSLSASVGDRVTITCHASQDISSYIVWYQQKPGKSFKGLIYHGTNLEDGVPSRFSGSGSGTDFTLTISSLQPEDFATYYCVHYAQFPYTFGQGTKVEIK
Output: 12.9

Task: Try this binder next: 3C8.gr.1 (antibody, V domains shown, human Fc) VH: EVQLVQSGAEVKKPGASVKVSCKASGYAFTNYLIEWVRQAPGQGLEWIGVINPGSGDTYYSEKFKGRVTITRDTSTSTAYLELSSLRSEDTAVYYCARDRLDYWGQGTLVTVSS VL: DIQMTQSPSSLSASVGDRVTITCHASQDISSYIVWYQQKPGKAPKLLIYHGTNLEDGVPSRFSGSGSGTDFTLTISSLQPEDFATYYCVHYAQFPYTFGQGTKVEIK
Output: 6.49

Task: Try this binder next: 3C8.gr.DQ (antibody, V domains shown, also called 3C8.gr.5.DQ) VH: EVQLVQSGAEVKKPGASVKVSCKASGYAFTNYLIEWVRQAPGQGLEWIGVINPGSGDQYYSEKFKGRVTLTADTSTSTAYLELSSLRSEDTAVYYCARDRLDYWGQGTLVTVSS VL: DIQMTQSPSSLSASVGDRVTITCHASQDISSYIVWYQQKPGKSFKGLIYHGTNLEDGVPSRFSGSGSGTDFTLTISSLQPEDFATYYCVHYAQFPYTFGQGTKVEIK
Output: 8.12

Task: Try this binder next: 1A7.gr.2 (antibody, V domains shown, human Fc (captured by anti-human Fc)) VH: EVQLVQSGAEVKKPGASVKVSCKASGYTFTDSYMSWVRQAPGQGLEWIGDMYPDNGDSSYNQKFRERVTITVDTSTSTAYLELSSLRSEDTAVYYCVLAPRWYFSVWGQGTLVTVSS VL: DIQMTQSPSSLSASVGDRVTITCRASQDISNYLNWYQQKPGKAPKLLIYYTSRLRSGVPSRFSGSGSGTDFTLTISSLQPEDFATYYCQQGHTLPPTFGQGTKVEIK
Output: 0.524

Task: Try this binder next: 3C8.gr.5.QG (antibody, V domains shown) VH: EVQLVQSGAEVKKPGASVKVSCKASGYAFTNYLIEWVRQAPGQGLEWIGVINPGSGDTYYSEKFKGRVTLTADTSTSTAYLELSSLRSEDTAVYYCARDRLDYWGQGTLVTVSS VL: DIQMTQSPSSLSASVGDRVTITCHASQDISSYIVWYQQKPGKSFKGLIYHGTNLEQGVPSRFSGSGSGTDFTLTISSLQPEDFATYYCVHYAQFPYTFGQGTKVEIK
Output: 1.17
